I'd be grateful if you could share measured EC50 for these entries.
Target: UniProt:Q01727
Sequence (Q01727 whole entry): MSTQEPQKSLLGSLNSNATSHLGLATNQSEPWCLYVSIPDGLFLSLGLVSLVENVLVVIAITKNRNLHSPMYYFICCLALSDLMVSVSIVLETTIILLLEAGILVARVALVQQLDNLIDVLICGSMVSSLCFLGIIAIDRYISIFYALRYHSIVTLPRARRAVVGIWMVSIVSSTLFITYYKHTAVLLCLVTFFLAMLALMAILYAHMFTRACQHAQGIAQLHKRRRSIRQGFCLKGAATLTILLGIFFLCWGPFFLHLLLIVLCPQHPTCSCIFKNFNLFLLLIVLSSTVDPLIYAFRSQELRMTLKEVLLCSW
Assay: Agonist activity at mouse MC1R expressed in HEK293 cells by beta-galactosidase reporter gene assay
Numbered stars: 1 amine (or outer) side, 2 acyl side, 3 side chain; on linkers, the order of the positions; unused ones are H or OH. Bridge positions count the residues as written; N and C are the ends. Square brackets hold non-standard residues; d marks the D form. Peptide text beside a SMILES is read from it. N(2-Aminoethyl)Gly = O=C(CN(CCN[*:3])[*:1])[*:2]; Adipoyl = O=C(CCCCC(=O)[*:2])[*:1]; Nphe = O=C(O)CNCc1ccccc1
State just the number; it will be interpreted in nM.

Give the reported EC50 for CC(=O)NCC(=O)N(CC(=O)N(CC(=O)N[C@@H](CCCNC(=N)N)C(=O)N[C@@H](Cc1c[nH]c2ccccc12)C(=O)NCC(N)=O)Cc1ccccc1)Cc1ccccc1 (HELM PEPTIDE1{[ac].G.[O=C(CN(Cc1ccccc1)[*:1])[*:2]].[O=C(CN(Cc1ccccc1)[*:1])[*:2]].R.W.G.[am]}$$$$V2.0) (system: UniProt:Q01727).
240

Enter reported EC50 observed with UniProt:Q01727 for NC(=O)CN1CCNC(=O)CCCCC(=O)N(Cc2ccccc2)CC(=O)N(Cc2ccccc2)CC(=O)N[C@@H](CCCN=C(N)N)C(=O)N[C@@H](Cc2c[nH]c3ccccc23)C1=O ([Nphe][Nphe]RW[N(2-Aminoethyl)Gly]-NH2; linker N-5 via Adipoyl)
990

Taken from ChEMBL document CHEMBL1159118.
